Target: Programmed cell death protein 1/Programmed cell death 1 ligand 1 (Homo sapiens, UniProt Q9NZQ7)
Sequence (Q15116 whole entry): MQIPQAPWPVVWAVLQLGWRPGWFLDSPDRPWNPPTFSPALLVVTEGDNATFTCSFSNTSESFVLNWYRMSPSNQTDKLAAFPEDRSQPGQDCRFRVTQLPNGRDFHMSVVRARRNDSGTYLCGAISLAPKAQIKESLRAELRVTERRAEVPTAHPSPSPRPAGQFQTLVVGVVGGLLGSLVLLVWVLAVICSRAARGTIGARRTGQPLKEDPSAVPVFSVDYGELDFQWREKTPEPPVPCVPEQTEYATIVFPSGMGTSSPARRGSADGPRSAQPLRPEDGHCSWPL
Sequence (Q9NZQ7 whole entry): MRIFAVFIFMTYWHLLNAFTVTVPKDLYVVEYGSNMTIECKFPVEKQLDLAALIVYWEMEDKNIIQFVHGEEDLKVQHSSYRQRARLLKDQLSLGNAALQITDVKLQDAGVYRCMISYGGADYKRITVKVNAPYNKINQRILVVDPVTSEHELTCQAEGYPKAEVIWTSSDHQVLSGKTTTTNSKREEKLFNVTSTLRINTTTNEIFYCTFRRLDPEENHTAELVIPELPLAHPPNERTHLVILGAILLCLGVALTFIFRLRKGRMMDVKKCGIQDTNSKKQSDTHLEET
Assay: Antagonist activity at human PD1/PD-L1 preincubated with PD-L1 for 1 hr followed by incubation with PD1 for 1 hr by ELISA
Assay type: protein-complex assay
Value type: IC50

Request: Can you look up the measured IC50 of `N#Cc1cncc(COc2cc(O[C@H]3CCc4c(-c5ccccc5F)cccc43)c(Cl)cc2CN2CC[C@@H](O)C2)c1` for me?
Response: < 100 nM

---

Target: Programmed cell death protein 1/Programmed cell death 1 ligand 1 (Homo sapiens, UniProt Q15116+Q9NZQ7)
Sequence (Q15116 whole entry): as the sequence (Q15116 whole entry) above
Sequence (Q9NZQ7 whole entry): as the sequence (Q9NZQ7 whole entry) above
Assay: Antagonist activity at human PD1/PD-L1
Type: protein-complex assay
pIC50: −log10 of the molar value.
Value type: pIC50

Request: Can you look up the measured pIC50 of `Cc1c(-c2ccccc2)cccc1-c1nc2c(s1)CNCC2` for me?
Response: ≥ 7.00
